# Assayed target: VEGFR2 (Homo sapiens)
# Construct: expressed in transfected cells; host or cells: CHO cells, pcDNA3.1 plasmid
# Protocol details: VEGFR2 cell-based assay (phospho-VEGFR2 ELISA, transfected CHO cells)
# Condition parameters: compound at 100 nM, read-out: % VEGFR2 kinase activity remains
Structures can show the parent of a compound that is named as a salt.
Listed next: entries and their corresponding remaining activity at 0.1 µM.

Consider Cl.O=C(Nc1cccc(Br)c1)Nc1cccc2c1ccn2Cc1ccnc2[nH]ccc12 [Example 41, hydrochloride] . Its measured remaining activity at 0.1 µM is ≥ 70%

Consider Cl.O=C(Nc1cccc(C(F)(F)F)c1)Nc1cccc2c1ccn2Cc1ccnc2[nH]ccc12 [Example 51, hydrochloride] . Its measured remaining activity at 0.1 µM is < 70%

Consider COc1ccccc1NC(=O)Nc1cccc2c1ccn2Cc1ccnc2[nH]ccc12.Cl [Example 46, hydrochloride] . Its measured remaining activity at 0.1 µM is ≥ 70%

Consider Cl.O=C(Nc1ccccc1Br)Nc1cccc2c1ccn2Cc1ccnc2[nH]ccc12 [Example 40, hydrochloride] . Its measured remaining activity at 0.1 µM is < 70%

Consider Cl.O=C(Nc1ccccc1C(F)(F)F)Nc1cccc2c1ccn2Cc1c[nH]c2ncccc12 [Example 23, hydrochloride] . Its measured remaining activity at 0.1 µM is < 70%

Consider O=C(Nc1ccccc1Cl)Nc1cccc2c1ccn2Cc1ccnc2[nH]ccc12 [Example 37, hydrochloride] . Its measured remaining activity at 0.1 µM is < 70%

Consider Cc1cccc(NC(=O)Nc2cccc3c2ccn3Cc2ccnc3[nH]ccc23)c1.Cl [Example 44, hydrochloride] . Its measured remaining activity at 0.1 µM is < 70%

Consider Cl.O=C(Nc1cc(Br)ccc1F)Nc1cccc2c1ccn2Cc1ccnc2[nH]ccc12 [Example 57, hydrochloride] . Its measured remaining activity at 0.1 µM is < 70%

Consider Cc1ccc(Br)c(NC(=O)Nc2cccc3c2ccn3Cc2ccnc3[nH]ccc23)c1.Cl [Example 58, hydrochloride] . Its measured remaining activity at 0.1 µM is < 70%

Consider Cl.N#Cc1ccc(NC(=O)Nc2cccc3c2ccn3Cc2ccnc3[nH]ccc23)cc1 [Example 54, hydrochloride] . Its measured remaining activity at 0.1 µM is ≥ 70%

Consider Cl.O=C(Nc1ccccc1)Nc1cccc2c1ccn2Cc1c[nH]c2ncccc12 [Example 4, hydrochloride] . Its measured remaining activity at 0.1 µM is ≥ 70%

====

# Assayed target: VEGFR2 (Homo sapiens, UniProt P35968)
# Construct: expressed in transfected cells; host or cells: CHO cells, pcDNA3.1 plasmid
# Sequence (P35968 20-1356, species assumed): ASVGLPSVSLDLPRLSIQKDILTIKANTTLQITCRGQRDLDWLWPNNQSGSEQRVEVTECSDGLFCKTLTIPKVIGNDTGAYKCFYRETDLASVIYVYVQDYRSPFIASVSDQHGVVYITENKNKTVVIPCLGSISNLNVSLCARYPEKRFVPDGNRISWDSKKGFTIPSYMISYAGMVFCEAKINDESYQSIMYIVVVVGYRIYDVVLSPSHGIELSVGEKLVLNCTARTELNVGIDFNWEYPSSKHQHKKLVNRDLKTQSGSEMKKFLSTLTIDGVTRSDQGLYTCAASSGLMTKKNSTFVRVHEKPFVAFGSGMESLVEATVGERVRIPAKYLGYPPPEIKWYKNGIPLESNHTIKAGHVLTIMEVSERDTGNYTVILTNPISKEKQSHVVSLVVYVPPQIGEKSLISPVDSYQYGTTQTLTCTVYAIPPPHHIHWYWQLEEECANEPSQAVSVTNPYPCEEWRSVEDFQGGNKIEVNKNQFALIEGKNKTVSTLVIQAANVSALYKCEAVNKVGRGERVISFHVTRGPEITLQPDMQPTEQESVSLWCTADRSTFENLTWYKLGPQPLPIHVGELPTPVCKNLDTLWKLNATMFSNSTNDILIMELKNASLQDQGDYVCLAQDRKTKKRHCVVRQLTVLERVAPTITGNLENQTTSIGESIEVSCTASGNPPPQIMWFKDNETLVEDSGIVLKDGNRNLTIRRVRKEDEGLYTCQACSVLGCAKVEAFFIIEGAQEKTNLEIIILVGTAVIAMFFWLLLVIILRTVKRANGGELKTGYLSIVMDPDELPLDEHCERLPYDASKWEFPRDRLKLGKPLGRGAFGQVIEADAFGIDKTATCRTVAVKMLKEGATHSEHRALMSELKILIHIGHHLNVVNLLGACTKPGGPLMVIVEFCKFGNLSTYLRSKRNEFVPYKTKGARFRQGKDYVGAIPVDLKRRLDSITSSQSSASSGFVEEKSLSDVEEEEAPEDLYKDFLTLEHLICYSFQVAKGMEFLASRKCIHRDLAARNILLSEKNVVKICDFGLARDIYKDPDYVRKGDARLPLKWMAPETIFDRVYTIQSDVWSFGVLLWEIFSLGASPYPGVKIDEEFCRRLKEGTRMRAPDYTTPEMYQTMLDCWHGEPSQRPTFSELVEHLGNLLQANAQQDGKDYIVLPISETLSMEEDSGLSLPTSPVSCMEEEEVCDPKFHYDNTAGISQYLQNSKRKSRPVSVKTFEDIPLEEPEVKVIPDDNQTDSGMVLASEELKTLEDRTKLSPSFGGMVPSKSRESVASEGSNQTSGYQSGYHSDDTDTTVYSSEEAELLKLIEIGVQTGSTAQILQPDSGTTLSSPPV
# Protocol details: VEGFR2 cell-based assay (phospho-VEGFR2 ELISA, transfected CHO cells)
# Condition parameters: compound at 100 nM, read-out: % VEGFR2 kinase activity remains
Structures can show the parent of a compound that is named as a salt.
Measure name: remaining activity at 0.1 µM

compound="Cl.O=C(Nc1ccccc1Br)Nc1cccc2c1ccn2Cc1c[nH]c2ncccc12 [Example 11, hydrochloride]" measure_name="remaining activity at 0.1 µM" observed_value="≥ 70%"

Consider Cl.O=C(Nc1cccc(OC(F)(F)F)c1)Nc1cccc2c1ccn2Cc1c[nH]c2ncccc12 [Example 21, hydrochloride] . Its measured remaining activity at 0.1 µM is ≥ 70%

Consider Cl.N#Cc1ccc(NC(=O)Nc2cccc3c2ccn3Cc2c[nH]c3ncccc23)cc1 [Example 27, hydrochloride] . Its measured remaining activity at 0.1 µM is < 70%

Consider Cl.O=C(Nc1ccc(Br)cc1)Nc1cccc2c1ccn2Cc1c[nH]c2ncccc12 [Example 13, hydrochloride] . Its measured remaining activity at 0.1 µM is ≥ 70%

Consider Cl.O=C(Nc1cc(Cl)ccc1F)Nc1cccc2c1ccn2Cc1c[nH]c2ncccc12 [Example 29, hydrochloride] . Its measured remaining activity at 0.1 µM is < 70%

Consider Cl.O=C(Nc1cc(Br)ccc1F)Nc1cccc2c1ccn2Cc1c[nH]c2ncccc12 [Example 30, hydrochloride] . Its measured remaining activity at 0.1 µM is < 70%

Consider O=C(Nc1cccc(Cl)c1)Nc1cccc2c1ccn2Cc1ccnc2[nH]ccc12 [Example 38, hydrochloride] . Its measured remaining activity at 0.1 µM is < 70%

Consider COc1ccc(Cl)cc1NC(=O)Nc1cccc2c1CCN2Cc1ccnc2[nH]ccc12.Cl [Example 1, hydrochloride] . Its measured remaining activity at 0.1 µM is < 70%

Consider COc1ccccc1NC(=O)Nc1cccc2c1ccn2Cc1c[nH]c2ncccc12.Cl [Example 17, hydrochloride] . Its measured remaining activity at 0.1 µM is < 70%

Consider Cl.O=C(Nc1ccc(OC(F)(F)F)cc1)Nc1cccc2c1ccn2Cc1c[nH]c2ncccc12 [Example 22, hydrochloride] . Its measured remaining activity at 0.1 µM is ≥ 70%

Ref: patent US8648086B2
